# protocol: Phase I study: pharmacokinetic analysis
# Format: in vivo, human
# measurement.parameters: human, plasma, oral, 40 mg, 40 mg BID; Day 1; read-out: Cmax
recorded.metric: Cmax

I have this molecule here, CC(C)Nc1cc(-c2c[nH]c(C(=O)N[C@H](CO)c3cccc(Cl)c3)c2)c(Cl)cn1 , and I need its recorded Cmax.
100 ng/mL

====

# System: MIAPaCa-2
# protocol: Reverse Phase Protein Analysis (RPPA)
# Type: cell-based
# measurement.parameters: MIAPaca2; % change from DMSO (matched cell line)
recorded.metric: Avg(p70 S6 Kinase T389 T412)
Field note: include the unit after the figure.

Look up Avg(p70 S6 Kinase T389 T412) for this molecule: O=C(Nc1ccc2[nH]nc(-c3ccncc3)c2c1)[C@@H]1CCN(CC(=O)N2CCN(c3ccc(-c4ncccn4)cc3)CC2)C1
−50.97%

Request: CC(C)Nc1cc(-c2c[nH]c(C(=O)N[C@H](CO)c3cccc(Cl)c3)c2)c(Cl)cn1
−39.23%

Same read-out for Cc1cnc(Nc2ccc(F)cc2Cl)nc1-c1c[nH]c(C(=O)N[C@H](CO)c2cccc(Cl)c2)c1 [Vx-11e] ?
−30.66%

Would you kindly repeat that for Cn1nccc1Nc1nccc(-c2ccn([C@H](CO)c3ccc(Cl)c(F)c3)c(=O)c2)n1 ?
−40.99%
